- Tested target: human sputum elastase (Homo sapiens)
- Sequence (P08246 30-247 limits assumed): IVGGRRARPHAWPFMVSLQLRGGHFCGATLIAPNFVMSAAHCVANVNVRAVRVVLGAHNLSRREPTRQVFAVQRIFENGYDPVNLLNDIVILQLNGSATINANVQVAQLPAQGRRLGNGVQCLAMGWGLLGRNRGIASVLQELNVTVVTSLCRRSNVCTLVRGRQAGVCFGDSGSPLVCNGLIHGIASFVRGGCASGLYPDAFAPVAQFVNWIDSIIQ
- Measurement description: Inhibitory effect on elastase (human sputum), spectrophotometric assay with MeOSuc-Ala-Ala-Pro-Val-pNA
- Format: biochemical
- Assay conditions: S: human sputum elastase; pH 8.0, 37° C.; read-out: IC50
Counter-ions that a name gives are not always drawn.
hey, just use 1 if measured IC50 is less than 300 nM, otherwise -1

Worked examples follow.
{"columns": ["Compound", "Answer label"],
 "data": [
  ["CC(C)(C)C(=O)Oc1ccc(-c2nnn(Cc3ccc(C(=O)O)cc3)n2)cc1 [Example 54]", 1],
  ["CC(C)(C)C(=O)Oc1ccc(-c2nnn(Cc3ccccc3OCC(=O)O)n2)cc1 [Example 81]", 1],
  ["CC(C)(C)C(=O)Oc1ccc(-c2nnn(C(C(=O)NCC(=O)O)c3ccccc3)n2)cc1 (centres unmarked) [Example 70]", -1],
  ["CC(C)c1ccc(-n2nnc(-c3ccc(OC(=O)C(C)(C)C)cc3)n2)cc1 [Example 6]", -1],
  ["CC(C)(C)C(=O)Oc1ccc(-c2nnn(Cc3cccc(OCCN)c3)n2)cc1 [Example 85, Hydrochloride]", 1]
]}

Check if IC50 falls below 300 nM for CC(C)(C)C(=O)Oc1ccc(-c2nnn(Cc3ccc(C(=O)NCCCCCC(=O)O)cc3)n2)cc1 [Example 68] . 1

Try this compound next: CC(C)(C)C(=O)Oc1ccc(-c2nnn(Cc3cccc(CCCN)c3)n2)cc1 [Example 89, Hydrochloride] 1

Next compound: CC(C)(C)C(=O)Oc1ccc(-c2nnn(Cc3ccc(C(=O)NCCN)cc3)n2)cc1 [Example 71, Hydrochloride] 1

###

Known inhibition in vivo at 10 mg/kg of a selection of compounds
- Tested on: endotoxin induced acute lung injury in mice
- Measurement description: Inhibitory effect on endotoxin induced acute lung injury in mice
- Assay type: in vivo, ICR mice
- Assay conditions: Mus musculus; oral 10 mg/Kg at 1.5 hr before and 4.5~5.0 hr after LPS (25 μg/site); BAL fluid at 19~20 hrs; read-out: Inhibitory percent of hemorrhage
Answer with a number only, understood to be in %.

Any idea what inhibition in vivo at 10 mg/kg was measured for CC(C)(C)C(=O)Oc1ccc(-c2nnn(C(C(=O)OCc3ccccc3)c3ccccc3)n2)cc1 (centres unmarked) [Example 51] ? 57

###

- Tested target: human sputum elastase (Homo sapiens, UniProt P08246)
- Measurement description: Inhibitory effect on elastase (human sputum), spectrophotometric assay with MeOSuc-Ala-Ala-Pro-Val-pNA
- Assay type: biochemical
- Assay conditions: S: human sputum elastase; pH 8.0, 37° C.; read-out: IC50
Where a name gives a salt, the structure may show the parent alone.
Reported property: pIC50
The read-out pIC50 is expressed as -log10 of concentration in moles per litre.

See these solved cases before continuing.
{"columns": ["Molecule", "Tested target", "Reported property", "Observed measurement"],
 "data": [
  ["CN(C)c1cccc(Cn2nnc(-c3ccc(OC(=O)C(C)(C)C)cc3)n2)c1 [Example 100]", "human sputum elastase (Homo sapiens, UniProt P08246)", "pIC50", 6.60],
  ["CN(C)CCn1nnc(-c2ccc(OC(=O)C(C)(C)C)cc2)n1 [Example 38, Hydrochloride]", "human sputum elastase (Homo sapiens, UniProt P08246)", "pIC50", 6.10],
  ["COc1ccc(COc2ccc(Cn3nnc(-c4ccc(OC(=O)C(C)(C)C)cc4)n3)cc2)cc1 [Example 18]", "human sputum elastase (Homo sapiens, UniProt P08246)", "pIC50", 6.80],
  ["COc1cc(-c2nnn(Cc3cccc(OCCN)c3)n2)ccc1OC(=O)C(C)(C)C [Example 88, Hydrochloride]", "human sputum elastase (Homo sapiens, UniProt P08246)", "pIC50", 6.19],
  ["CC(C)(C)C(=O)Oc1ccc(-c2nnn(Cc3ccccc3[N+](=O)[O-])n2)cc1 [Example 27]", "human sputum elastase (Homo sapiens, UniProt P08246)", "pIC50", 7.05],
  ["CC(C)(C)OC(=O)Cn1nnc(-c2ccc(OC(=O)C(C)(C)C)cc2)n1 [Example 10]", "human sputum elastase (Homo sapiens, UniProt P08246)", "pIC50", 6.10],
  ["CN(C(=O)OC(C)(C)C)c1ccc(Cn2nnc(-c3ccc(OC(=O)C(C)(C)C)cc3)n2)cc1 [Example 39]", "human sputum elastase (Homo sapiens, UniProt P08246)", "pIC50", 7.10],
  ["CC(C)(C)C(=O)Oc1ccc(-c2nnn(CCN)n2)cc1 [Example 92, Hydrochloride]", "human sputum elastase (Homo sapiens, UniProt P08246)", "pIC50", 5.80],
  ["COc1cc(-c2nnn(Cc3ccc(N(C)C)cc3)n2)ccc1OC(=O)C(C)(C)C [Example 48]", "human sputum elastase (Homo sapiens, UniProt P08246)", "pIC50", 6.15],
  ["CC(C)(C)C(=O)Oc1ccc(-c2nnn(Cc3ccc(C(=O)N4CCC[C@H]4C(=O)O)cc3)n2)cc1 [Example 59]", "human sputum elastase (Homo sapiens, UniProt P08246)", "pIC50", 7.40]
]}

Using the record for CC(C)(C)C(=O)Oc1ccc(-c2nnn(Cc3ccccc3)n2)cc1 [Example 9, 4-(2-Benzyltetrazol-5-yl)phenyl pivalate] , report its pIC50. 6.77

Now try CC(C)(C)C(=O)Oc1ccc(-c2nnn(Cc3ccc(OCCN)cc3)n2)cc1 [Example 86, Hydrochloride] . 7.10
